EXPERIMENTAL SYSTEM: JAK1 (Homo sapiens (Human))
Sequence (P23458 875-1153): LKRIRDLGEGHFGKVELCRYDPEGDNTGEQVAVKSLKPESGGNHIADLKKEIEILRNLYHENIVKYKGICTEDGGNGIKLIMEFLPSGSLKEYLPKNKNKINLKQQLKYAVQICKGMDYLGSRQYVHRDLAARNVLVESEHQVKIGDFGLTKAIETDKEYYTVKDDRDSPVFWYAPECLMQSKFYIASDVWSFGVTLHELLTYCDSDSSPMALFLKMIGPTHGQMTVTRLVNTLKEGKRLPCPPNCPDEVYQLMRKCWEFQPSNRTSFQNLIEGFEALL
ASSAY NAME: Jak biochemical HTRF assay, JAK1
RUN CONDITIONS: HTRF biochemical assay, recombinant GST-tagged catalytic domain; read-out: JAK1 IC50
EXPERIMENTAL ENDPOINT: IC50 (nM)
Answers are plain numbers, in nM.

Answered cases to consult:
Fill in: IC50 of CC(C)(C)S(=O)(=O)c1ccc(Nc2nn([C@H]3CCCC[C@@H]3C#N)c3cc[nH]c(=O)c23)cc1 is ___
0.12

And what about the compound CC1c2ccc(Nc3nn([C@H]4CCCC[C@@H]4C#N)c4cc[nH]c(=O)c34)cc2CN1C(=O)OC(C)(C)C (stereo partly shown) ?
1.3

For the 3 compounds below, give their IC50 values.
1. N#C[C@H]1CCCC[C@@H]1n1nc(Nc2cccc(CNC(=O)c3ncccn3)c2)c2c(=O)[nH]ccc21
2. N#C[C@H]1C[C@@H](N2CCC2)CC[C@@H]1n1nc(Nc2ccc(C(F)(F)F)cc2)c2c(=O)[nH]ccc21
3. N#C[C@H]1CCCC[C@@H]1n1nc(Nc2ccc3c(c2)CN(C2CCOCC2)C3=O)c2c(=O)[nH]ccc21

1: 0.91; 2: 0.88; 3: 0.078

For the 2 compounds below, give their IC50 values.
1. N#C[C@H]1C[C@H](O)CC[C@@H]1n1nc(Nc2ccc(Cl)cc2)c2c(=O)[nH]ccc21
2. N#C[C@H]1CCCC[C@@H]1n1nc(Nc2ccc([C@H]3C[C@H]4CC[C@@H](C3)N4)cc2)c2c(=O)[nH]ccc21

1. 0.28
2. 0.39
